- target: Single-stranded DNA cytosine deaminase (Homo sapiens) (UniProt Q9GZX7)
- Sequence (Q9GZX7 whole entry, looked up): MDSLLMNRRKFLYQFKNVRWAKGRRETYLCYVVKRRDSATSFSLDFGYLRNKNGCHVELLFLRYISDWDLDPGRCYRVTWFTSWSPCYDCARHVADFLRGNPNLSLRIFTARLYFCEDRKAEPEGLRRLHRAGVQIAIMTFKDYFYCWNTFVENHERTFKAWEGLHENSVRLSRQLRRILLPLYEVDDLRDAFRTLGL
- test: Validation qHTS assay for inhibitors of Activation Induced Cytidine Deaminase (AID): AID signal (AID 1347429)
- condition parameters: Recombinant AID, FRET ssDNA deamination with UDG, fluorescence; series mostly up to 115 µM
Active and inactive are the calls of the source. Calls follow the shape of the dose curve; as a rule, active = well fitted inhibition curve with a large enough effect; inconclusive = small, poorly fitted or top-dose-only effect; inactive = no such curve, though single readings can be large or run the other way.
One label from this list, please: Y = active, N = inactive

Recorded results for 5 molecules are shown here.
| molecule | classification |
| --- | --- |
| CN1CC[C@@]2(C)c3cc(O)ccc3N(C)C12 (stereo partly specified) | Y |
| CC(C)(C)c1cc(C=C(C#N)C#N)cc(C(C)(C)C)c1O | N |
| COc1ccc2c(c1)/C(=C/c1cnc[nH]1)C(=O)N2 | N |
| NC(=O)c1ccc(OCC(O)CN2CC=C(c3ccc(F)cc3)CC2)cc1 (stereo unspecified) | N |
| COC(=O)N1CCN(C(=O)Cc2ccc(Cl)c(Cl)c2)C(CN2CCCC2)C1 (stereo unspecified) | N |

Please state the recorded outcome for this molecule: `NC(N)=Nc1ccc2[nH]c3c(c2c1)C[C@@]1(O)[C@H]2Cc4ccc(O)c5c4[C@@]1(CCN2CC1CC1)[C@H]3O5`
Y

Also `NCCc1ccc(S(=O)(=O)F)cc1` , if possible.
N
